percentage inhibition of AuroraA values by entry
- TARGET_DESC: AuroraA (Homo sapiens (Human), UniProt O14965)
- Sequence (O14965 whole entry): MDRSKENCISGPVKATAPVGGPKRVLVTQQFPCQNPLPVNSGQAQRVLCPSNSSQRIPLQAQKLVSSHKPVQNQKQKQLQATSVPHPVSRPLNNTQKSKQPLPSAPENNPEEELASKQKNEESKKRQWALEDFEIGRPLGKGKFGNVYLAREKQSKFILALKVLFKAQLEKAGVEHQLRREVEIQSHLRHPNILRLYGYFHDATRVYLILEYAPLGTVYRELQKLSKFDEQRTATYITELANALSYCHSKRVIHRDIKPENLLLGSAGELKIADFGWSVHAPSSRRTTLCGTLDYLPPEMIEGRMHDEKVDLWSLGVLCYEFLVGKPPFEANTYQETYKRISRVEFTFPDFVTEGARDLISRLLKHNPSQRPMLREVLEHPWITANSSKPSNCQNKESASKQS
- TEST_PROTOCOL: AuroraA kinase selectivity assay
- Format: biochemical
- EXPERIMENTAL_SETUP: 1 μM inhibitor concentration
Dear colleague, please return just the value in percentage, with no unit written.

In the examples that follow, each entry is paired with its recorded percentage inhibition of AuroraA.
[[record]]
compound = "c1cc2[nH]nc3c2c(n1)N(C1CCCC1)CCC3 [Example 23]"
recorded_result = 0

[[record]]
compound = "c1cc2[nH]nc3c2c(n1)N(C1CCC1)CCC3 [Example 22]"
recorded_result = 0

[[record]]
compound = "CN1CCC(N2Cc3ccccc3-c3n[nH]c4ccnc2c34)CC1 [Example 55]"
recorded_result = 9

[[record]]
compound = "c1cc2[nH]nc3c2c(n1)N(C1CCOCC1)CCC3 [Example 29]"
recorded_result = 0


Read the next record carefully.
Quote percentage inhibition of AuroraA reported for CC(C)n1ncc2c1CN(C1CCN(C)CC1)c1nccc3[nH]nc-2c13 [Example 68] please. 13

###

- TARGET_DESC: TBK1 (Homo sapiens (Human), UniProt Q9UHD2)
- Sequence (Q9UHD2 whole entry, species assumed): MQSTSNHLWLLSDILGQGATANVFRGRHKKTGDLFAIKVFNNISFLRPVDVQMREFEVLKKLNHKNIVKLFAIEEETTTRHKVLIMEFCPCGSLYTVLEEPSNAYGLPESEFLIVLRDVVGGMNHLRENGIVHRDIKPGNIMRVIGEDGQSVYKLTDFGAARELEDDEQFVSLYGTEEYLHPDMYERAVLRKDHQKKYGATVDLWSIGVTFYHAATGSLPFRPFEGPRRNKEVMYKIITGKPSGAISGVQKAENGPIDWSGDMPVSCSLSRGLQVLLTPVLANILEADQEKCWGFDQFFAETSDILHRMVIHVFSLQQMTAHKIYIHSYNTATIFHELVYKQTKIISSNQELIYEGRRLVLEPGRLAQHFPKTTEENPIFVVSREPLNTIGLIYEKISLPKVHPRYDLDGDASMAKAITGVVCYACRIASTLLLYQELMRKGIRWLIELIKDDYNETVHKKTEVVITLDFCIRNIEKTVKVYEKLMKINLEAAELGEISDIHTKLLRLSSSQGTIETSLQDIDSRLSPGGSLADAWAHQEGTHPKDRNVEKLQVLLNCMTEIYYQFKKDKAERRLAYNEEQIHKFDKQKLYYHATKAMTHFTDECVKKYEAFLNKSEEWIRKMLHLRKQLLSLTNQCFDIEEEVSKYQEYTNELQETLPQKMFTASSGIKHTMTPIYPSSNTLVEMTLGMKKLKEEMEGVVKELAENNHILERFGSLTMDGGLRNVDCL
- TEST_PROTOCOL: TBK1 kinase selectivity assay
- Format: biochemical
- EXPERIMENTAL_SETUP: 1 μM inhibitor concentration
percentage inhibition of TBK1 values by entry
Dear colleague, please return just the value in percentage, with no unit written.

In the examples that follow, each entry is paired with its recorded percentage inhibition of TBK1.
[[record]]
chemical_structure = "c1cc2[nH]nc3c2c(n1)N(C1CCCC1)CCC3"
recorded_result = 0

[[record]]
chemical_structure = "CC(C)n1ncc2c1CN(C1CCN(C)CC1)c1nccc3[nH]nc-2c13"
recorded_result = 5

[[record]]
chemical_structure = "c1cc2[nH]nc3c2c(n1)N(C1CCOCC1)CCC3"
recorded_result = 0

[[record]]
chemical_structure = "CN1CCC(N2Cc3ccccc3-c3n[nH]c4ccnc2c34)CC1"
recorded_result = 5


Read the next record carefully.
Quote percentage inhibition of TBK1 reported for c1cc2[nH]nc3c2c(n1)N(C1CCC1)CCC3 please. 0

###

percentage inhibition of JNK1 values by entry
- TARGET_DESC: JNK1 (Homo sapiens (Human), UniProt P45983)
- Sequence (P45983 other isoform, or with tags, fused parts or gaps, species assumed): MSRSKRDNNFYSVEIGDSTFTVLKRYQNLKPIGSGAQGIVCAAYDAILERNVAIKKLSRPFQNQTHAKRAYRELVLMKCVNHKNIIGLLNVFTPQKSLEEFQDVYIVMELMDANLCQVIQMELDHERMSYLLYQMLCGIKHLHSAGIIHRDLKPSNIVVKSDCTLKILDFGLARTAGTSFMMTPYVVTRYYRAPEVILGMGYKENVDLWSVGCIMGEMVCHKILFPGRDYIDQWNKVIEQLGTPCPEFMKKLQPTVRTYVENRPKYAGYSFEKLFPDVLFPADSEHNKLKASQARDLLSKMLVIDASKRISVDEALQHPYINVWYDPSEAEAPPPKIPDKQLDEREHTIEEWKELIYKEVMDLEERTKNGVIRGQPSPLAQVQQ
- TEST_PROTOCOL: JNK1 kinase selectivity assay
- Format: biochemical
- EXPERIMENTAL_SETUP: 1 μM inhibitor concentration
Dear colleague, please return just the value in percentage, with no unit written.

[[record]]
compound = "c1cc2[nH]nc3c2c(n1)N(C1CCCC1)CCC3 [Example 23]"
readout_units = "percentage"
recorded_result = 0

[[record]]
compound = "CC(C)n1ncc2c1CN(C1CCN(C)CC1)c1nccc3[nH]nc-2c13 [Example 68]"
readout_units = "percentage"
recorded_result = 48

[[record]]
compound = "c1cc2[nH]nc3c2c(n1)N(C1CCC1)CCC3 [Example 22]"
readout_units = "percentage"
recorded_result = 0

[[record]]
compound = "c1cc2[nH]nc3c2c(n1)N(C1CCOCC1)CCC3 [Example 29]"
readout_units = "percentage"
recorded_result = 0


Read the next record carefully.
# assay system JNK1 (Homo sapiens (Human), UniProt P45983): give percentage inhibition of JNK1 of CN1CCC(N2Cc3ccccc3-c3n[nH]c4ccnc2c34)CC1 [Example 55] 49
